Biological target: T1, Cynomolgus monkey serum albumin (CSA) (cynomolgus monkey, UniProt A2V9Z4 25-608)
T1 construct: Bought protein (Abcam); also called cynomolgus monkey albumin
T1 sequence (A2V9Z4 25-608): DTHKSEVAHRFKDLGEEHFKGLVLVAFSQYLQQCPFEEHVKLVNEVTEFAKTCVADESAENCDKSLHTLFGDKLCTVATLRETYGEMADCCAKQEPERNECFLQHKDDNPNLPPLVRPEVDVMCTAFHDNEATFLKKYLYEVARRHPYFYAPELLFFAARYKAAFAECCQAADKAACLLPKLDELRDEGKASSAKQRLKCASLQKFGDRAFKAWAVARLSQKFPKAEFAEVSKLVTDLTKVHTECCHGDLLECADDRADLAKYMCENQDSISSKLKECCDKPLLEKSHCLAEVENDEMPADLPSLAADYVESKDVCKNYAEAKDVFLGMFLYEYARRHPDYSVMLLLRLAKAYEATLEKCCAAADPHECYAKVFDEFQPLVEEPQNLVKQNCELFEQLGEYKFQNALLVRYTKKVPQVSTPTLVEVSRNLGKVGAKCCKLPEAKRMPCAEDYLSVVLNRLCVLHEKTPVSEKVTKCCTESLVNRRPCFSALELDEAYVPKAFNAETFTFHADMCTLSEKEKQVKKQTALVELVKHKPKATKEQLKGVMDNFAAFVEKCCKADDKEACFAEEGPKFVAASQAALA
Assay: ELISA on coated cynomolgus monkey albumin, anti-human Fc HRP, A650, one site-total binding fit
What pKd was measured for each of the following?
Give bare numbers, as −log10 of the molar value.

Example cases with answers are listed next.
>>> value_reported("4A01v6 (Fc fusion, not shown: a dimerising Fc or GST; small tags and cut ends, also called Hz4A01v6) VHH: EVQLVESGGGEVQPGGSLRLSCAASGFAFSTSGMVWVRQAPGKGLEWVSTISDSGRIIRYAESVKGRFTISRDNAKNTLYLQMNSLRAEDTAVYYCATYRAGSRIGSYEDYYRGQGTLVTVKP")
9.65
>>> value_reported("4A01v3 (Fc fusion, also called Hz4A01v3; not shown: Human Fc carrier and its linker) VHH: EVQLVESGGGEVQPGGSLRLSCAASGFAFSTSGMVWVRQAPGKGLEWVSTISDDARIIRYAESVKGRFTISRDNAKNTLYLQMNSLRAEDTAVYYCATYRAGSRIGSYEDYYRGQGTLVTVKP")
9.47
>>> value_reported("4A01v4 (Fc fusion, not shown: a dimerising Fc or GST; small tags and cut ends, also called Hz4A01v4) VHH: EVQLVESGGGEVQPGGSLRLSCAASGFAFSTSGMVWVRQAPGKGLEWVSTISDESRIIRYAESVKGRFTISRDNAKNTLYLQMNSLRAEDTAVYYCATYRAGSRIGSYEDYYRGQGTLVTVKP")
9.61

Consider the additional binder presented here.
Entry 4A01v5 (Fc fusion, not shown: a dimerising Fc or GST; small tags and cut ends, also called Hz4A01v5) VHH: EVQLVESGGGEVQPGGSLRLSCAASGFAFSTSGMVWVRQAPGKGLEWVSTISDEGRIIRYAESVKGRFTISRDNAKNTLYLQMNSLRAEDTAVYYCATYRAGSRIGSYEDYYRGQGTLVTVKP : reported pKd = ? 9.69
